- Target entity: Gal(b1-3)GlcNAc(b1-3)Gal(b1-3)GlcNAc
- Test: glycan array binding signal (z-score within array); higher = stronger binding
- Measurement setup: glycan notation: IUPAC condensed, linker removed
The sample as a whole holds a higher share of the strongest signals than the screen did.
Metric: glycan array binding signal (z-score)
Lab note: write the figure by itself, no unit.

Binder	glycan array binding signal (z-score)
EULS2 M1 (Oryza sativa) (protein) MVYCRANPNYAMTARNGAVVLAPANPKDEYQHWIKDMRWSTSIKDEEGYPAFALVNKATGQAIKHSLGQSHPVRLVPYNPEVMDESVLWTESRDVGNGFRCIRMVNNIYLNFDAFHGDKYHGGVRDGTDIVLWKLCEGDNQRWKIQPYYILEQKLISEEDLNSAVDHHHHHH	-0.334
Gal 3C (Homo sapiens), P17931 (protein) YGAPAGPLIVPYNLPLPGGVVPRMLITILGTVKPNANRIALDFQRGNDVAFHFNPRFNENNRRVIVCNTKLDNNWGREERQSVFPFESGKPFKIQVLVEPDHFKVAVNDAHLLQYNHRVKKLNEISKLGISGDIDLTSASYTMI	-0.068
Si Bti9 1b-V5-his (Solanum lycopersicum) (protein) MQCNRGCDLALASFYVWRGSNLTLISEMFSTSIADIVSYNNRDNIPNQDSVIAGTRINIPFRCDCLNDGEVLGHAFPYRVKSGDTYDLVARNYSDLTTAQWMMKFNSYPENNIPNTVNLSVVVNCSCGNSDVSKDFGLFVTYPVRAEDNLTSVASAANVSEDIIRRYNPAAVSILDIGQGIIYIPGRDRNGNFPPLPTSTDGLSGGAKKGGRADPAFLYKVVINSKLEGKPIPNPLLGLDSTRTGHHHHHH	0.11
Ovorubin (Pomacea canaliculata), J7I2T6 (protein) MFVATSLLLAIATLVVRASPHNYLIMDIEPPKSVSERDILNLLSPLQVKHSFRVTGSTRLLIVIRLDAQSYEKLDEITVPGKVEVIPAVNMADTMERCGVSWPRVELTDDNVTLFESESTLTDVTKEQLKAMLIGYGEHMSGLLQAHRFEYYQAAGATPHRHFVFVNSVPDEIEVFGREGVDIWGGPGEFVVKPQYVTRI	-0.763

Bench note: what glycan array binding signal (z-score) did SLR2P2A3 (Tachypleus tridentatus), TAL2_TACTR (protein) MEKGTPPTHDSDNWMGRAKKIGNGGWNQFQFLFFDPNGYLYAVSKDKLYKASPPQSDTDNWIARATEIGSGGWSGSKFLFFHPNGYLYAVHGQRLYKALPPVSNQD show? -0.344

Entry Clrb (Mus musculus) (protein) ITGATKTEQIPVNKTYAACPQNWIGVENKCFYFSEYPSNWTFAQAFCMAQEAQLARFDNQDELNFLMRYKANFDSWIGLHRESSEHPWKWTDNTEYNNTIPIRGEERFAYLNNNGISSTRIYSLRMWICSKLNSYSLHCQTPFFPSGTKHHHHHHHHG : reported glycan array binding signal (z-score) = ? -0.431
